- Assayed system: E. coli DdlB enzyme (D-alanine:D-alanine ligase) (Escherichia coli, UniProt P07862)
- Construct: made in house; host or cells: E. coli
- Assay procedure: biochemical
- Test conditions: residual activity; tested concentration 1.9 mM; read-out: DdlB RA
Property: remaining activity at 1900 µM; scope: individual compounds
Experimental readout: remaining activity at 1900 µM (%)

>>> endpoint_result("O=C(O)c1cccn2c(=O)c3cc(F)ccc3nc12")
85
>>> endpoint_result("COc1cccc(CNC(=O)C2CCCCC(=O)N2C)c1 (stereo not shown)")
97
>>> endpoint_result("Cc1cc(NC(=O)C2CC(=O)N(C3CCCCC3)C2)no1 (stereo not shown)")
83
>>> endpoint_result("CCN(Cc1ccccc1)S(=O)(=O)c1ncn[nH]1")
89
>>> endpoint_result("O=C(O)c1[nH]c2ccc(F)cc2c1Br")
89
>>> endpoint_result("Oc1nc(-c2ccc(Cl)cc2)c2ccccc2n1")
83
>>> endpoint_result("CCn1cc(C(=O)Nc2ccccc2C(=O)O)cn1")
88
>>> endpoint_result("Oc1cccc(/C=C/c2ccc3cccc(O)c3n2)c1")
55
>>> endpoint_result("CN1CCC2(CC1)CN(C1CCC1)Cc1ccccc1O2")
86
>>> endpoint_result("COc1ccc(CNc2ccccc2C(=O)O)cc1")
101
